assay: viability loss of HPDE-C7K cells – cell-based, fluorescence, HTS, primary screen (AID 431); conditions: HPDE-C7K KRASV12 cells, Alamar Blue viability, 48 h; at 10 µM; hits give high values;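 also: 0% = DMSO solvent wells and 100% = doxorubicin-treated wells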
Hit rate of the full screen: of about 63,000 compounds, about 1,100 (1.7%) were called active. The entries come from a sample that favours actives as a whole. Entries with a potency or affinity are not part of this list.
Let's look at some molecules and their measured cytotoxicity.
TEST READOUT: cytotoxicity (%)

• Cc1ccc(-c2nn(C)c(=O)c3ccccc23)cc1CNC(=O)CN1CCOCC1 = 4.3
• O=C(Nc1ccc2oc(-c3ccccc3F)nc2c1)c1cncc(Br)c1 = 14.2
• O=C(Nc1ccccc1-c1nc2ccccc2o1)c1ccc2c(c1)OCCO2 = 79
